Catalogue of log10 of IC50 values
testedTarget: Cytochrome P450 2D6 (Homo sapiens, UniProt P10635)
Sequence (P10635 whole entry): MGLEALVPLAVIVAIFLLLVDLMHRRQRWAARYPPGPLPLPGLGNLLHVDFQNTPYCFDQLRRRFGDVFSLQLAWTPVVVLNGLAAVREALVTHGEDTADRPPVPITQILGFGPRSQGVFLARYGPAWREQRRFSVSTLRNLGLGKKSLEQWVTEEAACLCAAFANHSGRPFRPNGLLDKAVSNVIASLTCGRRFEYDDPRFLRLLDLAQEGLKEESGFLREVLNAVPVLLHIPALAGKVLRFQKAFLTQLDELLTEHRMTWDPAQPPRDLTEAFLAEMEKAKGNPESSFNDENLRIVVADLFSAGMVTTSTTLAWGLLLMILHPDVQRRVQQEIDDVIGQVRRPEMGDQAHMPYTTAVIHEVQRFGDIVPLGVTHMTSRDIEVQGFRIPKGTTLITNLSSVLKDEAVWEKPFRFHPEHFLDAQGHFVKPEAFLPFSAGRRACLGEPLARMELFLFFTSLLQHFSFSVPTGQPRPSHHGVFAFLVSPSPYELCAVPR
measuredParameter: log10 of IC50 (log10 of the value in µM)

- smiles: "CN(C(=O)CCC(=O)Nc1ccccc1)[C@H](CN1CC[C@H](O)C1)c1ccccc1"
  testedTarget: "Cytochrome P450 2D6 (Homo sapiens, UniProt P10635)"
  reportedMeasurement: 0.93
- smiles: "CN(C(=O)CCC(=O)Nc1nccs1)[C@H](CN1CC[C@H](O)C1)c1ccccc1"
  testedTarget: "Cytochrome P450 2D6 (Homo sapiens, UniProt P10635)"
  reportedMeasurement: 0.53
- smiles: "CN(C(=O)CC(=O)Nc1ccc(CNS(C)(=O)=O)cc1)[C@H](CN1CC[C@H](O)C1)c1ccccc1"
  testedTarget: "Cytochrome P450 2D6 (Homo sapiens, UniProt P10635)"
  reportedMeasurement: 0.73
- smiles: "CN(C(=O)CC(=O)Nc1ccc(NS(C)(=O)=O)cc1)[C@H](CN1CC[C@H](O)C1)c1ccccc1"
  testedTarget: "Cytochrome P450 2D6 (Homo sapiens, UniProt P10635)"
  reportedMeasurement: 1.00
- smiles: "CN(C(=O)CC(=O)Nc1ccccc1)[C@H](CN1CC[C@H](O)C1)c1ccccc1"
  testedTarget: "Cytochrome P450 2D6 (Homo sapiens, UniProt P10635)"
  reportedMeasurement: 0.72
- smiles: "CN(C(=O)NCC(=O)Nc1ccccc1)[C@H](CN1CC[C@H](O)C1)c1ccccc1"
  testedTarget: "Cytochrome P450 2D6 (Homo sapiens, UniProt P10635)"
  reportedMeasurement: 0.71
- smiles: "CN(C(=O)CC(=O)NCc1ccccc1)[C@H](CN1CC[C@H](O)C1)c1ccccc1"
  testedTarget: "Cytochrome P450 2D6 (Homo sapiens, UniProt P10635)"
  reportedMeasurement: 0.51
- smiles: "CN(C(=O)CC(=O)Nc1nccs1)[C@H](CN1CC[C@H](O)C1)c1ccccc1"
  testedTarget: "Cytochrome P450 2D6 (Homo sapiens, UniProt P10635)"
  reportedMeasurement: -0.15
